Biological target: T1, human EGFRvIII-hFc protein (human, UniProt P00533 25-645)
T1 construct: extracellular domain; made in HEK293 cells, purified on protein A; also called immunogen A; hFc-tagged EGFRvIII protein; not shown: human IgG Fc fragment (hFc) of the pCpC vector
Assay: ELISA, coated EGFRvIII-hFc, antibody 10 nM
Experimental endpoint: OD450 nm
Write no unit; give the number alone.

# Binder, OD450 nm
rows = [
    ("Murine anti-64F1 (antibody, V domains shown, murine hybridoma antibody; also called 64F1F8) VH: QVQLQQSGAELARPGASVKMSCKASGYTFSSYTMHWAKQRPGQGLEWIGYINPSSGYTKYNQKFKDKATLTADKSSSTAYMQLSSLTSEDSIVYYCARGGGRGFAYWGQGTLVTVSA VL: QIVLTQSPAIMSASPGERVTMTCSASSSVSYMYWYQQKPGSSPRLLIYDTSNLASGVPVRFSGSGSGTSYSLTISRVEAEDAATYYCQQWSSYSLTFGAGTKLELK", 3.76),
    ("Murine anti-56F10 (antibody, V domains shown, murine hybridoma antibody; also called 56F10G2) VH: EVQLQQSGAELVKPGASVKLSCTASGFNIKDFYMHWVKQRTEQGLEWIGRIDPEDGETKYAPKFQGKATITADTSSNTAYLQLSSLTSEDTAVYYCGCRTGGFAYWGQGTLVTVSA VL: QIVLTQSPAIMSASPGEKVTMTCSASSSVSYLYWYQQKPGSSPSLLIYDTSNLASGVPVRFSGSGSGTSYSLTISRMEAEDAATYYCQQWSRNPWTFGGGTKLEIK", 3.53),
    ("Murine anti-63A10 (antibody, V domains shown, murine hybridoma antibody; also called 63A10A7) VH: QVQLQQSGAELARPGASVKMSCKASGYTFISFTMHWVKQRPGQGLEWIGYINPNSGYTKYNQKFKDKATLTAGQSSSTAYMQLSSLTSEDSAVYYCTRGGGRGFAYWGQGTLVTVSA VL: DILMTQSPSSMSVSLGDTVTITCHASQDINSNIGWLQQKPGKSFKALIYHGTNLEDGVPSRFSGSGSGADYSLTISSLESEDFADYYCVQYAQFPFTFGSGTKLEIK", 3.76),
    ("Murine anti-51G7 (antibody, V domains shown, murine hybridoma antibody; also called 51G7C2) VH: EVQLQQSGAELVKPGASVKLSCTASGFNIKDFYIHWVKQRTEQGLEWIGRIDPEDGETKYAPKFQDKATIIADTSSNTAYLQLSSLTSEDTAVYYCASSSYYGNNYWGQGTTLTVSS VL: QIVLTQSPAIMSASPGEKVTLTCSASSSVSSNYLYWYQQKPGSSPKLWIYSTSNLASGVPARFSGSGSGTSYSLTISSMEAEDAASYFCHQWSSFPYTFGGGTKLEIK", 3.69),
    ("Murine anti-43H6 (antibody, V domains shown, murine hybridoma antibody; also called 43H6A1) VH: INAEYAGGPGLVKPSQSLSLTCTVTDYSITSDYAWNWIRQFPGNKLEWMGYISYSGNTNYNPSLKSRISITRDTSKNQFFLQLNSVTTEDTATYYCARLGRGFAYWGQGTLVTVSA VL: DILMTQSPSSMSVSLGDTVSITCHASQDINSNIGWLQQKPGTSFKGLIYHGRNLEDGVPSRFSGSGSGEDYSLTISSLESEDFADYYCVQYAHFPPTFGAGTKLELK", 3.87),
    ("Murine anti-53D8 (antibody, V domains shown, murine hybridoma antibody; also called 53D8H4) VH: QVQLQQSGAELARPGASVKMSCKASGYTFTSYTMHWVKQRPGQGLEWIGYINPSSGYTKYNQIFKDKATLTADKSSSTAYMQLSSLTSEDSAVYYCTRGGGRGFAYWGQGTLVTVSA VL: DILMTQSPSSMSVSLGDTVSITCHASQDINSNIGWLQQKPGKSFKGLIYHGTNLEDGVPSRFSGSGSGADYSLTISSLESEDFADYYCVQYAQFPFTFGSGTKLEIK", 3.69),
    ("Murine anti-49G12 (antibody, V domains shown, murine hybridoma antibody; also called 49G12G5) VH: EVQLLQSGAELVKPGASVKLSCTASGFNIKDYYMHWVKQRTEQGLEWIGRIDPEDGETKYAPKFQGKATMTADTSSNTAYLQLSSLTSEDTAVYYCASSAYYGRNYWGQGTTLTVSS VL: QIVLTQSPAIMSASPGEKVTLTCSASSSLSSSYLYWYQQKPGSSPKLWIYSTSNLASGVPARFSGSGSGTSYSLTISSMEAEDAASYFCHQWSSYPYTFGGGTKLEIK", 3.8),
    ("Murine anti-7E5 (antibody, V domains shown, murine hybridoma antibody; also called 7E5-2A9; murine anti-7E5-2) VH: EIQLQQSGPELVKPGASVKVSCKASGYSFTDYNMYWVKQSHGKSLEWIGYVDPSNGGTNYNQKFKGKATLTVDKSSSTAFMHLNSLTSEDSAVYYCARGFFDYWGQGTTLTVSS VL: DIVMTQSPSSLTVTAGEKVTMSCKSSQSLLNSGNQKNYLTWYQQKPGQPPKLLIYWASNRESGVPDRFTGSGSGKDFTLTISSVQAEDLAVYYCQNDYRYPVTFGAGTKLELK", 3.14),
]

# input binder: Murine anti-75G7 (antibody, V domains shown, murine hybridoma antibody; also called 75G7C6) VH: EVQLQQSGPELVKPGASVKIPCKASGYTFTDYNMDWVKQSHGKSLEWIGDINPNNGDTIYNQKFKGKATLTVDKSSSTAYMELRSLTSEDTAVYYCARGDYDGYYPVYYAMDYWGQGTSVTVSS VL: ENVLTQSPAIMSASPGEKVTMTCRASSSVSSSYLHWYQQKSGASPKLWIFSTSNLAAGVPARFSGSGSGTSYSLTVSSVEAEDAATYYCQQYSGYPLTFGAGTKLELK ; wanted: its OD450 nm
0.19

Which measured OD450 nm value corresponds to Murine anti-46C4 (antibody, V domains shown, murine hybridoma antibody; also called 46C4A6) VH: EVHLQQSVAELVRPGASVKLSCTASGFNIKNTYMHWVKQRPEQGLEWIGRIDPANGNTKYAPKFQGKATITADTSSNTAYLQLSSLTSEDTAIYYCASDFDYWGQGTTLTVSS VL: DVLMTQTPLSLPVSLGDQVSISCRSSQSIVNSNGNTHLEWYLQKPGQSPKVLIYKVSKRFSGVPDRFSGSGSGTDFTLKISRVEAEDLGVYYCFQGSHVPYTFGGGTKLEIK ?
3.85

Please give the measured OD450 nm for this binder: Murine anti-64B11 (antibody, V domains shown, murine hybridoma antibody; also called 64B11F2) VH: EVQLQQSGAELVKPGASVKLSCTASGFNIKDYYMHWVKQRTEQGLEWIGRIDPEDGETKYAPKFQGKATITADTSSNTAYLQLSNLPSEDTAVYYCGCRTGGFAYWGQGTLVTVSA VL: DILMTQSPSSMSVSLGDTVSITCHASQGINSNIGWLQQKPGKSFKALIYHGTNLEDGVPSRFSGSGSGADYSLTISSLESEDFADYYCVQYAQFPFTFGSGTELEIK
3.63
